tested on: P. falciparum female gametocytes; assay: P. falciparum Dual Gamete Formation Assay (PfDGFA), female readout (Pfs25-positive female gametes); type: cell-based, Plasmodium falciparum NF54; settings: PfDGFA, 24 h incubation with gametocytes before induction, female gamete readout; read-out: Female IC50
pIC50: −log10 of the molar value.
Where pIC50 equals or exceeds 6, the correct label is T; where it does not, the label is F.

Example results:
CS(=O)(=O)O.c1ccc2c(CNCCCCCCNCc3c(OCC4CC4)ccc4ccccc34)c(OCC3CC3)ccc2c1 [TCMDC-137839]
F
COc1ccc(CNC2CCN(C)CC2)cc1-c1ccc(S(=O)(=O)NCc2ccccc2)s1.O=C(O)C(F)(F)F [TCMDC-132253]
F
CN1CCN(CCCNCc2ccc(Nc3nccc(Nc4ccc(Oc5ccccc5)cc4)n3)cc2)CC1 [TCMDC-138621]
F
CS(=O)(=O)O.FC(F)(F)COc1ccc2ccccc2c1CCNCCCCNCCc1c(OCC(F)(F)F)ccc2ccccc12 [TCMDC-137317]
F
C[C@H](Cc1ccc(OCCCCCOc2ccc(C[C@@H](C)NC[C@H](O)c3cccc(Cl)c3)cc2)cc1)NC[C@H](O)c1cccc(Cl)c1.Cl [TCMDC-131563]
F
CC[C@H]1CN2CCc3cc(OC)c(OC)cc3[C@@H]2C[C@@H]1C[C@H]1NCCc2c1cc(OC)c(O)c2Cl [TCMDC-131802]
T
COc1ccc(N2CCN(CCCCNCc3ccc(NC(=O)c4cc(Cl)cc(Cl)c4)cc3)CC2)c(OC)c1 [TCMDC-138226]
F
CCOC(=O)c1cc2c(CCN3C(=O)c4ccccc4C3=O)cn(C)c2cc1-c1ccncc1 [TCMDC-138099]
F

# next molecule below
Is reported pIC50 greater than or equal to 6 here: CCN(CC)CCOc1ccc(C(O)(C#CC(O)(c2ccc(OCCN(CC)CC)cc2)c2ccc([N+](=O)[O-])cc2)c2ccc([N+](=O)[O-])cc2)cc1 (stereo not drawn) [TCMDC-137201] F

---

tested on: P. falciparum female gametocytes; test: P. falciparum Dual Gamete Formation Assay (PfDGFA), female readout (Pfs25-positive female gametes); assay type: cell-based, Plasmodium falciparum NF54; conditions: 2µM, 24h preincubation with gametocytes; average of replicates
Respond with label 1 for Average inhibition female (%) values of 70% and above, label 0 for values below.

Given the entry CNC(=S)NN=C(C)c1ccccn1 [TCMDC-123475] , answer whether its Average inhibition female (%) meets or surpasses 70%. label 0

Can CCCc1cc2c3c(N)nc(N)nc3ccc2n1CC [TCMDC-137946] be said to have Average inhibition female (%) at or above 70%? label 1

Is the recorded value of Average inhibition female (%) equal to or greater than 70% for this compound? CCCOc1ccc(CCNCCCCNCCc2ccc(OCCC)c3ccccc23)c2ccccc12.CS(=O)(=O)O [TCMDC-137952] label 1

Quick check: does CC(Cc1ccc(OCCCCOc2ccccc2)cc1)NCCC1CCCN1C (centres unmarked) [TCMDC-140017] have Average inhibition female (%) greater than or equal to 70%? label 0

API: above_or_equal(metric=Average inhibition female (%), cutoff=70%) for item CN(C)CCN(C)Cc1ccc(-c2ccc3c(Nc4ccc(Oc5ccccc5)cc4)ccnc3c2)o1 [TCMDC-138400] label 0

---

Each entry below lists one item and its recorded % inhibition male (individual replicates) R4 value.
tested on: P. falciparum male gametocytes; test: P. falciparum Dual Gamete Formation Assay (PfDGFA), male readout (exflagellation); format: cell-based, Plasmodium falciparum NF54; conditions: PfDGFA at 2µM, 24h preincubation with gametocytes prior to induction of gametogenesis; replicate R4
Kindly provide the numeric value in % only, without the unit symbol.

CC(C(=O)OCCOCn1cnc2c(=O)[nH]c(N)nc21)N(C)C(=O)OC(C)(C)C (stereo not shown) [TCMDC-137343]
-43.6
Cc1c(OC(C)C)nc2ccccc2c1C(=O)N[C@H](c1cccc(F)c1)C1CC1 [TCMDC-135994]
25.6
CS(=O)(=O)CCNCc1ccc(-c2ccc3c(Nc4ccc(Cl)cc4F)ccnc3c2)o1 [TCMDC-138445]
-10.6

Form entry - test system: P. falciparum male gametocytes; read-out: % inhibition male (individual replicates) R4; compound: O=C(Nc1ccc([N+](=O)[O-])cc1)c1nn(-c2ccccc2)cc1/N=C/c1cccc(O)c1 [TCMDC-124108] -9.8

---

tested on: P. falciparum female gametocytes; assay: P. falciparum Female Gametocyte Activation Assay (PfFGAA); type: cell-based, Plasmodium falciparum; conditions: Mean TOX HepG2 over FGAA IC50; GREEN = >10-fold; RED = <10-fold
This listing pairs compounds with measured Cytotox ratio Pf FGAA.
Answer field: number only, no words.

Use these answered entries as a reference point.
Cl.NCC1(c2nc(-c3ccc(Cl)c(O)c3)c(-c3ccncc3)[nH]2)CCCCC1 [TC41]
108.8
CCN(CC)CCN(Cc1ccc(-c2ccc(C(F)(F)F)cc2)cc1)C(=O)Cn1cc(Cc2cnn(C)c2)c(=O)nc1/C=C/c1ccc(F)cc1.O=C(O)C(O)C(O)C(=O)O [TC64]
12.5

Look up Cytotox ratio Pf FGAA: FC(F)(F)c1ccc2[nH]c(-c3ccc(-c4ccc(CNCCN5CCNCC5)cc4)cc3)nc2c1.O=C(O)C(F)(F)F [TC40] 10.7

Sample COc1cccc(C23NC(=Nc4nc5ccccc5[nH]4)NC2(c2cccc(OC)c2)NC(=Nc2nc4ccccc4[nH]2)N3)c1 (centres unmarked) [TC54] — what was its Cytotox ratio Pf FGAA? 406.2

I'd like to know its Cytotox ratio Pf FGAA. The compound in question is CC(C)(C)c1ccc(-c2nc3c(ccc4nc(N)nc(N)c43)[nH]2)cc1.Cl [TC05] 11.8

For the compound CC(C)(CN)c1nc(-c2ccc(Br)c(O)c2)c(-c2ccncc2)[nH]1.Cl [TC13] , what Cytotox ratio Pf FGAA is on record? 76.6

Could you tell me which Cytotox ratio Pf FGAA is on file for c1ccc(-c2nc(Nc3nc4ccccc4[nH]3)[nH]c2-c2ccccc2)cc1 [TC56] ? 23.4

Look up Cytotox ratio Pf FGAA: O=C(c1ccc([N+](=O)[O-])o1)N1CCC(Cc2ccc(C(F)(F)F)cc2)CC1 [TC15] 145.0

---

Recorded measurements of inhibition at 2 µM, one per entry
test system: P. falciparum female gametocytes; test: P. falciparum Dual Gamete Formation Assay (PfDGFA), female readout (Pfs25-positive female gametes); assay type: cell-based, Plasmodium falciparum NF54; conditions: Plasmodium falciparum; PfDGFA at 2µM, 24h preincubation with gametocytes; replicate R1; read-out: % inhibition female (individual replicates) R1
Could you give the number and then its unit, please?

Cc1ccc(-n2c(Sc3ncnc4sccc34)nnc2N2CCCC2)cc1
56.4%
Fc1ccc2[nH]c(-c3ccc(-c4ccc(CNCCN5CCNCC5)cc4)cc3)nc2c1.O=C(O)C(F)(F)F
18%
COc1ccc2nc3cc(Cl)ccc3c(NCCCCNc3c4ccc(Cl)cc4nc4ccc(OC)cc34)c2c1
84.2%
CC(Nc1cc(-c2ccccn2)nc(-c2ccccn2)n1)c1ccccc1 (stereo not drawn)
55.2%
COc1ccc(C[C@H](N)C(=O)N[C@H]2[C@@H](O)[C@H](n3cnc4c(N(C)C)ncnc43)O[C@@H]2CO)cc1
41.5%
COc1ccc2nc(-c3cc(-c4ccc(NC(=O)C(C)C)cc4)cnc3N)[nH]c2c1
-9.8%
c1ccc2[nH]c(CN(Cc3nc4ccccc4[nH]3)Cc3nc4ccccc4[nH]3)nc2c1
1.1%
O=C(NC1CCN(Cc2ccccc2)CC1)c1cc(C(=O)NC2CCN(Cc3ccccc3)CC2)cc(C(=O)NC2CCN(Cc3ccccc3)CC2)c1
24.6%

Moving on to the next compound.
Return inhibition at 2 µM measured with P. falciparum female gametocytes given this compound: `COc1ccc(Nc2ncc(Cl)c(Nc3cccnc3C(N)=O)n2)cc1N1CCN(C)CC1.Cl` 1.7%

---

# reported inhibition at 2 µM; entries follow
tested on: P. falciparum male gametocytes; test: P. falciparum Dual Gamete Formation Assay (PfDGFA), male readout (exflagellation); format: cell-based, Plasmodium falciparum NF54; conditions: Plasmodium falciparum; 2µM, 24h preincubation with gametocytes; replicate R4; read-out: % inhibition male (individual replicates) R4
Field format: number, assumed %, no unit text.

Consider the worked cases shown below.
Cc1ccc(C(C(=O)Nc2ccc(N3CCNCC3)c(Cl)c2)c2ccccc2)cc1 (stereo not drawn)
94.1
O=C1Nc2ccccc2C1=NNC(=S)N1CCOCC1
96.9
CN1CCN(CCCNCc2cccc(-c3ccc(CNCCc4ccccc4)cc3)c2)CC1.O=C(O)C(F)(F)F
98.5
CN(C)CCNCc1cccc(-c2ccc3c(Nc4ccc(Oc5ccccn5)cc4)ccnc3c2)c1
100
CCN(CC)CCN(Cc1ccc(-c2ccc(C(F)(F)F)cc2)cc1)C(=O)Cn1cc(Cc2cnn(C)c2)c(=O)nc1/C=C/c1ccc(F)cc1.O=C(O)C(O)C(O)C(=O)O
100

Alright, here's another molecule for you.
Requested read-out: inhibition at 2 µM. Entry: `CCCCNS(=O)(=O)c1ccc(NC(=O)c2cc([N+](=O)[O-])ccc2Cl)cc1` 98.2
